# target_under_test: T1, EsCas13d, nuclease-dead (Eubacterium siraeum, UniProt B0MS50, R295A;H300A;R849A;H854A)
# T1 sequence: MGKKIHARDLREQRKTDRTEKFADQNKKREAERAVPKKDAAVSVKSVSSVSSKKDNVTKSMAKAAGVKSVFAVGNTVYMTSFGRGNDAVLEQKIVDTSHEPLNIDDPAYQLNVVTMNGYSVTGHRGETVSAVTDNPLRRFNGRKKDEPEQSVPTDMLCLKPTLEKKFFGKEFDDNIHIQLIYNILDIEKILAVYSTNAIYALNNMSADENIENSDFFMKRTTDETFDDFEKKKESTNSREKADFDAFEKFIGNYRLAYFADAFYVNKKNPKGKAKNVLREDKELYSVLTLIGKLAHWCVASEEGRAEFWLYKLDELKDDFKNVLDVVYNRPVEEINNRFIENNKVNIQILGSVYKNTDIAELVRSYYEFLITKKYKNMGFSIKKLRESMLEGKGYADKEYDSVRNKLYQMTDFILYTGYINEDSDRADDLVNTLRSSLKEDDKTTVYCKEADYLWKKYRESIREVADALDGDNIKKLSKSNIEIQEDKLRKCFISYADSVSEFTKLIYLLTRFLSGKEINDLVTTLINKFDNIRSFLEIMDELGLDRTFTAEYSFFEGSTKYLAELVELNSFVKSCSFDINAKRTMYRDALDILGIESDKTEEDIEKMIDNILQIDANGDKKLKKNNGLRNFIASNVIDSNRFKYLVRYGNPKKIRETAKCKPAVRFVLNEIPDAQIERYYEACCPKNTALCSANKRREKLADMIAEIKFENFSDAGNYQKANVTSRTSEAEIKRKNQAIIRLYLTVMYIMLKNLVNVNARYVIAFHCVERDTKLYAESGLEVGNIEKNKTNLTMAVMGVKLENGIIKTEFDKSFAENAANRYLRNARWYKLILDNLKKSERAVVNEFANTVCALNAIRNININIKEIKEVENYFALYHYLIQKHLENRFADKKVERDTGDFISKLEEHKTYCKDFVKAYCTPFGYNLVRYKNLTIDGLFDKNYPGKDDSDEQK
# test_protocol: crRNA (strand 1, pre-loaded); Mg2+; 40 mM Tris-HCl pH 7.5, 150 mM NaCl, 6 mM MgCl2, 1 mM DTT, 0.1% Tween-20, 0.2 mg/ml BSA; 25 C; 10 min per concentration, then washed
# condition_set: tags: His6-TwinStrep-SUMO cleaved; N-terminal SNAP kept (SNAP-Surface 488); label: 3' end held by stalled T7 RNA polymerase
pKd: −log10 of the molar value.
We begin with a simple list: items and their reported pKd.

binder | pKd
target 1 U10A,G12C (mixed) RNA 1: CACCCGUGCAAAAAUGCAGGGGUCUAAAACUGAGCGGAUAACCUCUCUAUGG RNA 2: GGGAAUGGAUCCACAUCUACGAAUUCGUACCAUAGAGAGCUAAUCCGCUCACCGAGAUCGGAAGAGCACACGU | 8.07
target 1 A1C,C6U (mixed) RNA 1: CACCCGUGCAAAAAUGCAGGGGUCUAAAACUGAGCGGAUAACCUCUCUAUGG RNA 2: GGGAAUGGAUCCACAUCUACGAAUUCGUACCAUAGAGAGGUUAUCUGCUCCCCGAGAUCGGAAGAGCACACGU | 8.04
target 3 U7C,U8A (mixed) RNA 1: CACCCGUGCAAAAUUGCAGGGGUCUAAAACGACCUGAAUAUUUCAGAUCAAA RNA 2: GGGAAUGGAUCCACAUCUACGAAUUCGUUUUUGAUCUGAAAUAACCAGGUCUGCAGAUCGGAAGAGCACACGU | 6.95
target 3 insA 3' of 22,insA 3' of 2 (mixed) RNA 1: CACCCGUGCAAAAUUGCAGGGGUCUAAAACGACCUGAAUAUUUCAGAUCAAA RNA 2: GGGAAUGGAUCCACAUCUACGAAUUCGUUUAUUGAUCUGAAAUAUUCAGGUACUGCAGAUCGGAAGAGCACACGU | 7.60
target 2 MT 5'PFS GGC 3'PFS UUU (mixed) RNA 1: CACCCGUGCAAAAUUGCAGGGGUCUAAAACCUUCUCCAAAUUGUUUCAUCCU RNA 2: GGGAAUGGAUCCACAUCUACGAAUUCGGCAGGAUGAAACAAUUUGGAGAAGUUUAGAUCGGAAGAGCACACGU | 7.57
target 2 MT 5'PFS AUG 3'PFS UAU (mixed) RNA 1: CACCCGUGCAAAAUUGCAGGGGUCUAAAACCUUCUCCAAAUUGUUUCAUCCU RNA 2: GGGAAUGGAUCCACAUCUACGAAUUCAUGAGGAUGAAACAAUUUGGAGAAGUAUAGAUCGGAAGAGCACACGU | 7.82
target 1 U8A,G17U (mixed) RNA 1: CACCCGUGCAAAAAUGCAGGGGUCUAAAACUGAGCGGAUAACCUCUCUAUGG RNA 2: GGGAAUGGAUCCACAUCUACGAAUUCGUACCAUAUAGAGGUUAACCGCUCACCGAGAUCGGAAGAGCACACGU | 7.21
target 1 U19C,C21A (mixed) RNA 1: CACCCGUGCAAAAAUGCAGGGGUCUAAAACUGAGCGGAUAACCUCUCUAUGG RNA 2: GGGAAUGGAUCCACAUCUACGAAUUCGUACAACAGAGAGGUUAUCCGCUCACCGAGAUCGGAAGAGCACACGU | 7.43
